assay protocol: protein stability index of a GFP-peptide fusion (GPS, HEK-293T) (PSI 1-6); higher = more stable;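 also: 24-mer peptide tiles fused after GFP, lentivirally expressed, FACS-sorted into six equal bins by GFP/DsRed ratio, decoded by Illumina sequencing, PSI is the read-weighted mean bin number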
experimental setup: treatment: MLN4924 1 uM, 8 h; c terminus: a fixed tail appended
As shown below, each of these sequences has a reported protein stability index value.
Write no unit; give the number alone.

In [3]: df
Out[3]:
                       sequence_input  observed_result
0     DLCPPIGRRAATALLWLSCSIALL [GNAS]             2.19
1    QRDSKCKVKWTHEEDEQLRALVRQ [MYBL2]             4.02
2    LLERQVEMTPEKFSVLMEKLCKKG [FANCE]             3.36
3  IAYYSYIYSVVDLGMYQKVTSYCR [SLC19A2]             2.62
4     KFSIPDLDRHQLPLDDALLSFAHA [DPCD]             2.94
5     KKHYRLQFYMFGWTHVTLLIVVTQ [CDS2]             2.58

Now for a further sequence.
Input line: For the sequence shown here, LYPSAPILGGSGPVRKLYDDCSST [ESRRG] , give the reported protein stability index.
Output line: 3.72
